testProtocol: aqueous solubility
Type: physicochemical
cond: water; at room temperature
quantity: solubility

* O=C1CCc2ccc(OCCCCN3CCN(c4cccc(Cl)c4Cl)CC3)cc2N1 | < 1 µg/mL
